- assay.overview: yeast display, Sf9 membrane polyspecificity reagent, FACS + sequencing; frameworks hold sequencing errors
measurement.name: polyreactivity (PSR sort gate)

q: What polyreactivity (PSR sort gate) value was documented for this sequence, QVQLVESGGGLVQAGGSLRLSCAASGRTFTRYTMGWYRQAPRKERELVAAITRGGTTYYADSVKGRFTISRDNAKNTVYLQMNSLKPEDTAVYYCNKRKQQSSDGYGYWGQGTQVTVSS ?
a: high polyreactivity

q: Similarly, QVQLVESVGGLDQAGVSLRLSCPASVRTLSKNSMGWYRQAPGKARELVATISSVGRTNYAVSVKGRFTISRDNAKNTVYLQMKSLKREDTAVYYCDARRFRGSYYWGLGTQVTVSS ?
a: high polyreactivity

q: Now try QVQIVESGGGLVQAGGSVRLSCAASGRTFYYNAMGWYRQAPGKERELVASISSSDSDTYYADSVKGRFTISRDNAKNTVYLQMNSLKPEDTAVYYCAAEYYWDLTFTRYDYWGQGTQVTVSS .
a: low polyreactivity

q: Try the sequence QVQIVESGGGLVQAGGSLRLSCAASGSTSYRYAMGWYRQATGQERALVAAIPWISDSTYYADSVKGRFTISRDNAKNTVYLQMNSLKPEDTAVYYCNTDPLVTSVTFNYWGQGTQVTVSS
a: low polyreactivity

----------
- assay.overview: yeast display, Sf9 membrane polyspecificity reagent, FACS + sequencing; frameworks hold sequencing errors
measurement.name: polyreactivity (PSR sort gate)

Please review the entries below; each comes with its answer.
q: Could you tell me which polyreactivity (PSR sort gate) is on file for QVQLVESGGGLVQAGGSLRLSCAASGSIFSTYAMGWYRQAPGKERELVAAITTSGGRTYYADSVKGRFTISRDNAKNTVYVQMNSLKPEETAVYYCNAVRGGRYGLDYWGQGTQVTVSS ?
a: high polyreactivity

q: // repeat for QVQLVESGGGLVQAGGSLRLICAASGITFSYYALGRSRQAPGKERELVAAISVTGGSTYYADSVKGRFTISRDNAKNTVYLQMNSLKPEDTAVYYCAADSYYYDGDYWGQGTQVTVSS and report
a: high polyreactivity

q: Please answer likewise for QVQLVESGGGLVQAGGSLRLSCAASGSTFKPYAMGWYRQAPGKERELVAAITWSSGSTYYADSVKGRFTISRDNAKNTVYLQMNSLKPEDTAVYYCARDRYSVFEYDYWGQGTQVTVSS
a: low polyreactivity

q: Moving on to QVQLVESGGGLVQAGGSLRLSCAASGSIFTGYDMGWYRQAPGKERELVAVISTAGRTYYADSVKGRFTISRDNAKNTVYLQMNSLKPEDTAVYYCAKRSYSKDQPRYGYWGQGTQVTVSS
a: low polyreactivity

q: Cool, now QVQLVESGGGLVQAGGSLRLSCAASGSTVEYNAMGWYRQAPGKERELVASSTNYADSVKGRFTISRDNAKNTVYLQMNSLKPEDTAVYYCAASSLPHDSYRHSYLYEYWGQGTQVTVSS
a: low polyreactivity

q: Thanks! And QVQLVESGGGLVQAGGSLRLSCAASGFTFGTYAMGWYRQAPGKERELVAGITSGDGTYYADSVKGRFTISRDNAKNTVYLQMNSLKPEDTAVYYCAVVHYQQYSWRVYFYPYDYWGQGTQVTVSS ?
a: high polyreactivity

q: Okay, and QVQLVESGGGLVQAGGSLRLSCAASGSIFNRYAMGWYRQAPGKERELVAAIRSGDNTNYADSVKGRFTISRDNAKNTVYLQMNSLKPEDTAVYYCAKRTYYRSRTVGWGKMDYWGQGTQVTVSS ?
a: high polyreactivity

---
q: Value lookup for polyreactivity (PSR sort gate); key = QVQLVESGGGLVQAGGSLRLSCAASGFTFGRYAMGWYRQAPWKERELVADITWSGGSTYYADSVKGRFSISRDFAKNTVYLQMNSLKPEDTAVYYCNRLSKNREYDYWGQGTQVNVSS
a: high polyreactivity

Value source: the nanobody polyreactivity screen of Harvey et al. (2022)
